Assay system: hMC5R (Homo sapiens)
Sequence (P33032 whole entry): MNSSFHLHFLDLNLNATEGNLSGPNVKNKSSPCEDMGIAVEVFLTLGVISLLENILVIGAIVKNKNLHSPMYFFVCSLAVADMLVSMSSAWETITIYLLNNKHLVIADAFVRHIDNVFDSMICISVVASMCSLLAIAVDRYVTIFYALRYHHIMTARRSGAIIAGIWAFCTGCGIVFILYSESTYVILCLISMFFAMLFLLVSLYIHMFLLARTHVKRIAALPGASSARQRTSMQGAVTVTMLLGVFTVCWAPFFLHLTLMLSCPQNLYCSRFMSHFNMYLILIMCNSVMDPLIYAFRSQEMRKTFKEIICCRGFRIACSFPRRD
Assay procedure: cAMP functional assay (agonist)
Measured attribute: EC50 (µM)
Answers are plain numbers, in µM.

Looking for the measured EC50 of `CC[C@H](NC(C)=O)c1cc(Cl)ccc1C1CCN(C(=O)[C@@H]2CN(C(C)(C)C)C[C@H]2c2ccc(F)cc2F)CC1` , can you help?
1.4

* * *

Assay system: hMC1bR (Homo sapiens)
Sequence (Q01726 whole entry): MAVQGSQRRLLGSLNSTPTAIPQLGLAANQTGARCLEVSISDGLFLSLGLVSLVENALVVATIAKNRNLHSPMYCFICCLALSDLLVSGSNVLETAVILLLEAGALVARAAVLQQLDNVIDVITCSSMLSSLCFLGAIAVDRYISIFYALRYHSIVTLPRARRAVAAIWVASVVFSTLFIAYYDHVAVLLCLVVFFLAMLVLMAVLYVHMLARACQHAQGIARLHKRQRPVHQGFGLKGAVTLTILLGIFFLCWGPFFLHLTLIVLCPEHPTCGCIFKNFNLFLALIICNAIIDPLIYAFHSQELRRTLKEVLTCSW
Measured attribute: pIC50
Numbers only, as −log10 of the molar value.

Looking for the measured pIC50 of CC[C@H](NC(C)=O)c1cc(Cl)ccc1C1CCN(C(=O)[C@@H]2CN(C(C)(C)C)C[C@H]2c2ccc(F)cc2F)CC1 [Compound A] , can you help?
5.25

Data provenance: patent US20080200376A1
